The reported measurements were obtained from patent US20250340659A1.

# study_system: T1, canine OX40L, full length membrane form, expressed on HEK293 cells (canine)
# T1 chain: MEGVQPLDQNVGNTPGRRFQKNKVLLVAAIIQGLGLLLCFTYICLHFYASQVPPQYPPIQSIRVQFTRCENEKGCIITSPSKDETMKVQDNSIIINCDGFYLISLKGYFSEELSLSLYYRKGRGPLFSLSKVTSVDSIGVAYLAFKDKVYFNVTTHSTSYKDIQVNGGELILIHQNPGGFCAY
# test_summary: cell-based or functional assay
Measured % Signal Inhibition Rep1, listed per entry for reference.
Lab book: enter the figure in %, no units written.

| binder | % Signal Inhibition Rep1, % |
| --- | --- |
| PMX155 (antibody, V domains shown) VH: ELHLVESGGDLVKPAGSLRLSCVASGFTFSSFRMSWVRQSPGKGLQFVAGINSDGYNTQYRDDVKGRFTISRDNTEKTLYLQMNNLRVEDTAMYYCVKDQGSWGGNFDFWGQGTLVTVSS VL: SYGLTQPPSVNVTLRETAHITCGGDSIGSKYVQWIQQIPGQAPVVIIYKDRNRPTGIPERFSGANSGNTATLTISGALAEDEADYYCQVGDSGTSVFGGGTHLTVL | 19.9 |
| PMX063 (antibody, V domains shown, also called PMX63) VH: EVQLVESGGDLVRPGGSLRLSCVASGFTFNNYHMSWVRQAPGKGLQWVAFINSGGSGTTFADVVRGRFTISRDYAKNALYLQMNSLRAEDTAVYYCASGSIWTHFDYWGQGTLVTVSS VL: SFVLTQLPSVSVTLRQTARITCGGDIIGSKNVYWYQQRLGQAPVLIIYRDNNRPTGIPERFSGASSGNTATLTISGALAEDEADYYCQVWDNSNKAMFGGGTHLTVL | 68.3 |
| PMX110 (antibody, V domains shown) VH: EVQLVESGGDLVRPGGSLRLSCVASGFTFSSYHMSWVRQAPGKGLQWVAFINSGGSSTTYADVVRGRFTISRDYAKNTLYLQMNSLRAEDTAVYYCASGSILTHFDYWGQGTLVTVSS VL: SFVLTQLPSVSVTLRQTARITCGGDSVGSKSVYWYQQKLGQAPVLIIYRDSNRPTGIPERFSGASSGNTATLTISGALAEDEADYYCQVWDNSNKAMFGGGTHLTVL | 55.2 |
| PMX038 (antibody, V domains shown, also called PMX38) VH: EVQLVESGGDLVKPGGSLRLSCVASGFTFSSYHMSWVRQAPGKGLQWVAYITSGGRTTSYADAVKGRFTISRDNAKNTLYLQMKSLRAEDTAVYYCARDLVLVLGGAEYWGQGTLVTVSS VL: SYELTQPPSVNVTLRETAHITCGGDSIGRKYVQWIQQNPGQAPVVIIYKDSNRPTGIPERFSGANSGNTATLTISGALAEDEADYYCQVGDSGSKAVFGGGTHLTVL | 79.8 |

Now turn to the next binder.
Find the recorded % Signal Inhibition Rep1 belonging to PMX057 (antibody, V domains shown, also called PMX57) VH: EVQLVESGGDLVKPEGSLRLSCVVSGFTFNNYGMSWVRQAPGKGLQWVAYISIDGRSTSYTDAVKGRFTISRDNAKNTLYLHINSLRTEDTAVYYCTKLGRGFTFGYWGQGTLVTVSS VL: SYVLTQLPSKNVTLKQPAHITCGGDNIGSKSVHWYQQKLGQAPALIIYYDSSRPTGIPERFSGANSGNTATLTISGALAEDEADYYCQVWDSSVSVFGGGTHLTVL and report it.
52.1
